Biological target: Ybr033w (UniProt P38073)
Sequence: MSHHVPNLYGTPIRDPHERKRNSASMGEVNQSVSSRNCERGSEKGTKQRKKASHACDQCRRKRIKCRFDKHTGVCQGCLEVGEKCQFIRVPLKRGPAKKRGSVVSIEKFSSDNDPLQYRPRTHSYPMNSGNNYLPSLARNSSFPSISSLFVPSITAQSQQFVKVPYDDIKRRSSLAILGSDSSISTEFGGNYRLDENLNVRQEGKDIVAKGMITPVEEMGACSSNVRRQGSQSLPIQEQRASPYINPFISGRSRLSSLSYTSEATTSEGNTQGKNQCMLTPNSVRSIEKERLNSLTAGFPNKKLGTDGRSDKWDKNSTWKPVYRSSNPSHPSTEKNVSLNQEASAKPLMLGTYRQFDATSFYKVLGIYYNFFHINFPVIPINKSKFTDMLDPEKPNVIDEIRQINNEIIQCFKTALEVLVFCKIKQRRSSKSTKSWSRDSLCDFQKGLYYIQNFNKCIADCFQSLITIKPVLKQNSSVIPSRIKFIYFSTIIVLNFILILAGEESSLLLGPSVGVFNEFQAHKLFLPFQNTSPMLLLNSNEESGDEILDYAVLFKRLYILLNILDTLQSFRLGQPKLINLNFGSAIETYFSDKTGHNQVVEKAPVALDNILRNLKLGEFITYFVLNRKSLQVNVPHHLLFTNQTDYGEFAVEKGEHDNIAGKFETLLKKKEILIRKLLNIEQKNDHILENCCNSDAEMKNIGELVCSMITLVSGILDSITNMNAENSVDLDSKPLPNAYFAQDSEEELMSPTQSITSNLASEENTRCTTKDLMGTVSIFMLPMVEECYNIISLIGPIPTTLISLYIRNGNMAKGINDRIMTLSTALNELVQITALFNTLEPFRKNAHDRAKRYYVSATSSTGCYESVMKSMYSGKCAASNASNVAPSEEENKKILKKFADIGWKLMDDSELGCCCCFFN
Assay: PBM E-score (8-mer binding enrichment) (E-score (-0.5 to 0.5)); higher = stronger / more preferred TF binding
Details: protein concentration: 200 nM; construct: GST-full length
The full ranking holds about 33,000 sequences; the median of “E-score (-0.5 to 0.5)” is about -0.012, and the highest 2% start at about 0.29. For the sample, the highest values were picked, then their nearest neighbours and some sequences at random.
Decide by PBM E-score: equal to or exceeding 0.09 means yes, less means no.

sequence-content	category-label
AAATATGC	yes
ACGTACGA	no
GAGCCCAC	no
ATATTAAG	yes
CATCGTAC	no
ATAAAATA	yes
GATACATC	no
AGGGGAAG	no
GAATTTTA	yes
TATGGCAA	no
CATTTCTC	yes
AAATATTG	yes
AACCTGGT	no
ATTTTGTG	yes
AATACATG	yes
AATTTTCC	yes
ATTTTTTG	yes
ATAAAAAT	yes
AATTTTCA	yes
ATATTAAT	yes
AATACATC	yes
AGGGTGGG	no
TTAAATAA	yes
TCCACACA	yes
AGTGAATC	no
ACCAAGCG	no
CTGCCCAC	no
AACTACCC	no
ATAAAAAA	yes
AAATATTT	yes
ATTTTACG	yes
ACGAGTGC	no
CAATTTTA	yes
CTACTGGC	no
ACATTAAT	yes
CCGAAGTC	no
ATAAATAA	yes
GACATTAC	yes
ATTTTTTC	yes
AAATATTA	yes
ATTTTACC	yes

====

# reported PBM E-score; entries follow
Target: Ybr033w (UniProt P38073)
Sequence: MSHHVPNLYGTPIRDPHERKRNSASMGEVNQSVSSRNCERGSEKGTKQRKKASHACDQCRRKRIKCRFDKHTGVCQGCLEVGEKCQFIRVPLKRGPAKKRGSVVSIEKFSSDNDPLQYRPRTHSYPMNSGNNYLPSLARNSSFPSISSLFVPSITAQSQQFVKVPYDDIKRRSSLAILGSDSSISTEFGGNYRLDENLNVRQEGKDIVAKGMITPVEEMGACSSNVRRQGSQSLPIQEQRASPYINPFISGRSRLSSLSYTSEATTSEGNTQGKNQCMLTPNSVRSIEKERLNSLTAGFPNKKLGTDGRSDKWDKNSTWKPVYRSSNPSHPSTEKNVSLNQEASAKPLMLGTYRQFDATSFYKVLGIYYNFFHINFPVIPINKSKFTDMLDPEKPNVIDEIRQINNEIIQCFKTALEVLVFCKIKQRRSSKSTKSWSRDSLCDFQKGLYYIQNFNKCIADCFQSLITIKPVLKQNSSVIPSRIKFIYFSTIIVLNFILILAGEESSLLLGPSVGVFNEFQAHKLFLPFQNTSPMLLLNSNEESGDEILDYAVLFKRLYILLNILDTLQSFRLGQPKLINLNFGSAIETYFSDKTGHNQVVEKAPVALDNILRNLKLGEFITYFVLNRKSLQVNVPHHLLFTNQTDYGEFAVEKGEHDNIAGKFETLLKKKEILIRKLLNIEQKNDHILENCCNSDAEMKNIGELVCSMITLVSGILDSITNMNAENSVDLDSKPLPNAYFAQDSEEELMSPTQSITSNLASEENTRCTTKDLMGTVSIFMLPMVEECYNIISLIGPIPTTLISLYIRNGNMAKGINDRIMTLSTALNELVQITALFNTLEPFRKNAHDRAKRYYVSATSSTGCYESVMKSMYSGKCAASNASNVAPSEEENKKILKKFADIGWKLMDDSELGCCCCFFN
Assay: PBM E-score (8-mer binding enrichment) (E-score (-0.5 to 0.5)); higher = stronger / more preferred TF binding
Conditions: protein concentration: 200 nM; construct: GST-full length
In all, about 33,000 sequences were measured (“E-score (-0.5 to 0.5)”: median about -0.012, highest 2% from about 0.29 on). What follows is part of a selection rich in the highest values, with near analogues and random picks from the rest.

sequence-content	PBM E-score
GAACATCC	0.303
AGGTGAGC	-0.172
GCGATACC	-0.236
AGTTGTAT	0.0541
ACCAGAGA	0.0781
ATTATTTA	0.373

====

Target: Ybr033w (UniProt P38073)
Sequence: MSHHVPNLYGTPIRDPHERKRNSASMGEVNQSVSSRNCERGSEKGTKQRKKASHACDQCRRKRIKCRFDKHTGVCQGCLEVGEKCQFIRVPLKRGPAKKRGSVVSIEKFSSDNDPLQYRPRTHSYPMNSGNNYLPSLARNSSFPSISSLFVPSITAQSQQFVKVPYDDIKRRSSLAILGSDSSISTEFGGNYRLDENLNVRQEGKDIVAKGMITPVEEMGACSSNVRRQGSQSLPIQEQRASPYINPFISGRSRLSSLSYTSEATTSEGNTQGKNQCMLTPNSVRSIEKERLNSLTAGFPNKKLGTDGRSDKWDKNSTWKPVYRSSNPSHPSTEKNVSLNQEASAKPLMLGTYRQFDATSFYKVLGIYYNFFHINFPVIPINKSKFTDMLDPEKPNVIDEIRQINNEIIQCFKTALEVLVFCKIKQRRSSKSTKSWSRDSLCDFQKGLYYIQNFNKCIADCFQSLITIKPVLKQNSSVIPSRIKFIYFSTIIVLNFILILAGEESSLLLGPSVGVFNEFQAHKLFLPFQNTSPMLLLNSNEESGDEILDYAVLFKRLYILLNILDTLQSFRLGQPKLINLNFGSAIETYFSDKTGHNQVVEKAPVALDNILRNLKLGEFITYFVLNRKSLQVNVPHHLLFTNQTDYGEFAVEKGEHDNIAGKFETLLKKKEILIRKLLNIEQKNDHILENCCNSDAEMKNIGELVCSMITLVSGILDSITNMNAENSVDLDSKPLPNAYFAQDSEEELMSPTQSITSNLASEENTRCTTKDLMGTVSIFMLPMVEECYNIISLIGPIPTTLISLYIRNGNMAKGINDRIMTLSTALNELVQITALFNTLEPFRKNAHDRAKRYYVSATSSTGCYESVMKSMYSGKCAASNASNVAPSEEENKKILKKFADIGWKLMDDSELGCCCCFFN
Assay: PBM E-score (8-mer binding enrichment) (E-score (-0.5 to 0.5)); higher = stronger / more preferred TF binding
Conditions: protein concentration: 200 nM; construct: GST-full length
In all, about 33,000 sequences were measured (“E-score (-0.5 to 0.5)”: median about -0.012, highest 2% from about 0.29 on). For the sample, the highest values were picked, then their nearest neighbours and some sequences at random.
Decide by PBM E-score: equal to or exceeding 0.2 means Criterion met, less means Criterion not met.

sequence-content	category-label
ATTAAGTG	Criterion not met
ATTCAGTA	Criterion not met
CCATATTA	Criterion not met
AGAGGTGG	Criterion not met
TACTAATA	Criterion not met
CGGGATTA	Criterion met
AACGGTGT	Criterion not met
ACATATTG	Criterion not met
GAGACACC	Criterion not met
ATTAAGTA	Criterion met
GTTAAGTA	Criterion not met
CAATAACA	Criterion not met
CGGAATTC	Criterion not met
ACTGCGAA	Criterion not met
AGGAATAC	Criterion not met
GGATAATA	Criterion met
GCGGATTA	Criterion met
CACTAATA	Criterion not met
ATGGATAA	Criterion met
AACTAATA	Criterion met
ATATATTA	Criterion met
TCGAATAA	Criterion not met
ATATATTC	Criterion met
GAATAAAC	Criterion not met
CACAATCG	Criterion not met
ATATATCC	Criterion met
CCGGATTA	Criterion met
GTATATTA	Criterion met
CTCCTCGC	Criterion not met
ATATATCA	Criterion not met
GAATAAGA	Criterion not met
